Value source: patent US6150385A

Give measured inhibition at 25 µM for each item. Keep answers brief.
- TARGET SYSTEM: HCMV polymerase (Human cytomegalovirus, UniProt P08546)
- Construct: made in house; host or cells: SF-9 insect cells infected with recombinant baculovirus
- Sequence (P08546 whole entry): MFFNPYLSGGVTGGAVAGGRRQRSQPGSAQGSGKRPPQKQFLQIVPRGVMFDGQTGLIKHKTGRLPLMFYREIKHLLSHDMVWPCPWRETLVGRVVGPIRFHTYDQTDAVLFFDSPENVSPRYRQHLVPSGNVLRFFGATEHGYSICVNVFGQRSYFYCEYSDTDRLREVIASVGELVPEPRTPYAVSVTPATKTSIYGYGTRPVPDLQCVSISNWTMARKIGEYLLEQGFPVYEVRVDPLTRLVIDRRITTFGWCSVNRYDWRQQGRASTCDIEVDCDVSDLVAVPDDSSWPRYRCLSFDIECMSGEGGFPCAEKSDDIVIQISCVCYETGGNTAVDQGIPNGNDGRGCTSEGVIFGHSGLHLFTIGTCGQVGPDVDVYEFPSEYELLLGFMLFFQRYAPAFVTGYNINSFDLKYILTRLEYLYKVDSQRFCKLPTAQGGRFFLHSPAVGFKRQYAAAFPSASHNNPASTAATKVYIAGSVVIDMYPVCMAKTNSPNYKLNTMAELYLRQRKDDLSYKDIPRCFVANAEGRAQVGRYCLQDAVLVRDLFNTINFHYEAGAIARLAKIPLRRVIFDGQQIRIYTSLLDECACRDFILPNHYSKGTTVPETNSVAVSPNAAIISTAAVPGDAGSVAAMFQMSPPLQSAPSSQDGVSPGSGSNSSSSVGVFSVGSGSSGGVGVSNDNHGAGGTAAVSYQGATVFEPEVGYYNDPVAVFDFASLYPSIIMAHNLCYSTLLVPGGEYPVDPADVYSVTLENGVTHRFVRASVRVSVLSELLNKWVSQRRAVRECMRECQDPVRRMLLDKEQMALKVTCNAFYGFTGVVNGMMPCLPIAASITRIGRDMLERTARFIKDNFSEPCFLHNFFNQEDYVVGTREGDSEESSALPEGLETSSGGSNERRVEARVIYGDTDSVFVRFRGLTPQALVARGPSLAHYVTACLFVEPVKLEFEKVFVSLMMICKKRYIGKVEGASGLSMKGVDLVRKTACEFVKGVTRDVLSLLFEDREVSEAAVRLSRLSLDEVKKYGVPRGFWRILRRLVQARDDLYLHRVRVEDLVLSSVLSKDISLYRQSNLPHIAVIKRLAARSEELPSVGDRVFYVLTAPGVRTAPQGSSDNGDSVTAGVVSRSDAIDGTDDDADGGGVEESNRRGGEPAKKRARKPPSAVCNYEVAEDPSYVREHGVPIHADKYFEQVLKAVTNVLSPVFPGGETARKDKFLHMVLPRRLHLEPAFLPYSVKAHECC
- ASSAY COMMENT: HCMV polymerase assay (scintillation proximity assay)
- Assay type: biochemical
- PARTICULARS: percentage of inhibition at 25 μM concentration in CMV polymerase assay
Numbers only, in %.

Example results:
> print(dat)
                                   compound  quantity.unit  observed.value
1  O=C(Nc1nnc(NCc2ccc(Cl)c(Cl)c2)s1)c1ccc2c(c1)C(=O)OC2=O [compound 12]              %            99.5
2  O=C(/C=C/c1ccccc1)Nc1nnc(NCCc2ccccc2)s1 [compound 262]              %            39.5
3  COc1ccc(CNc2nnc(NC(=O)c3ccc(I)cc3)s2)cc1OC [compound 134]              %            56.9
4  O=C(Nc1nnc(NCCCCc2ccccc2)s1)c1cc(F)cc(F)c1 [compound 373]              %            28.1
5  O=C(Nc1nnc(NCC(c2ccccc2)c2ccccc2)s1)c1cc(F)cc(F)c1 [compound 188]              %            47.2

Parameter requested: inhibition at 25 µM. Apply to each item below.
1. CC(C)c1cc(C(C)C)c(C(=O)Nc2nnc(NCCCNC3CCCCC3)s2)c(C(C)C)c1 [compound 36]
2. O=C(/C=C/c1ccccc1Cl)Nc1nnc(NCCC(c2ccccc2)c2ccccc2)s1 [compound 240]

1. 87.6
2. 41.3
